Recorded values, source the supplement of paper PMC10065799.

System: Fyn (UniProt P06241)
Sequence (P06241 whole entry, looked up): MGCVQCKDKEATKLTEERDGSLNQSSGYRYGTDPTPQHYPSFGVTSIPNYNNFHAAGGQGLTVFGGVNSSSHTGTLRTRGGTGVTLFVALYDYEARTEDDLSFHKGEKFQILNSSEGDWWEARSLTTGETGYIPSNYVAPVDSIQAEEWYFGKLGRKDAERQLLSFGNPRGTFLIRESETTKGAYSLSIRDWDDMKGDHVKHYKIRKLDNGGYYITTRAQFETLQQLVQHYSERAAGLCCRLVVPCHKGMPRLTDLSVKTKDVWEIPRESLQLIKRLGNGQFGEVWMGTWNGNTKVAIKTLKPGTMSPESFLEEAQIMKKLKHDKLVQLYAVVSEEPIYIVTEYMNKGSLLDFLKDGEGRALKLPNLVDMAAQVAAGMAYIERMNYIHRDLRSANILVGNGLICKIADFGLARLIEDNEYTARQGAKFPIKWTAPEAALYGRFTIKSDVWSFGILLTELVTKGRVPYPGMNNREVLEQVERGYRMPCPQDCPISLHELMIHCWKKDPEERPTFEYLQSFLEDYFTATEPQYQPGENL
Protocol Notes: phosphorylation enrichment, bacterial display (enrichment ratio); higher = better substrate or ligand; peptides without Tyr show the background
Overview of recorded phosphorylation enrichment for various sequences
Answer with a number only.

Look over these answered cases.
Ask | Which measured phosphorylation enrichment belongs to FQKDVYNIPPS [NEDD9_Y177_D178N_YF] , tested on Fyn (UniProt P06241)?
Reply | 2.54

Ask | Test system Fyn (UniProt P06241); read-out phosphorylation enrichment; what value for ALLVFYAATIA [SLC20A2_Y187_P184L] ?
Reply | 0.44

Continuing:
Ask | GET /values?readout=phosphorylation enrichment&system=Fyn (UniProt P06241)&item= IRKDLYANNVL [ACTA2_Y296]
Reply | 0.413

Ask | Find phosphorylation enrichment (Fyn (UniProt P06241)) for the entry YPPDGYSRHCE [CTNND1_Y213_Y217C]
Reply | 0.585

Ask | Checklist item: phosphorylation enrichment tested on Fyn (UniProt P06241), entry FCGFSYDDIPD [TMEM230_Y112_R108C_YF] , value?
Reply | 0.481

Ask | Short answer please: phosphorylation enrichment, Fyn (UniProt P06241), entry MKKQKYGRIIM [HSD17B4_Y143]
Reply | 0.443

Ask | Field: phosphorylation enrichment (Fyn (UniProt P06241)). Entry: GEPLSHTRFSL [TFRC_Y20_Y20H]
Reply | 0.398

Ask | Kindly state the measured phosphorylation enrichment obtained for TRDTDYQMTKR [ADA_Y308_L304R] with Fyn (UniProt P06241).
Reply | 0.377

Ask | Write down the reported phosphorylation enrichment of KIPGRYFETGS [PAX2_Y72_L69P_YF] , test system: Fyn (UniProt P06241).
Reply | 0.466

* * *

System: c-Src SH2;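 further: peptide library displayed on the E. coli surface as eCPX fusions, selected cells deep-sequenced, score is each peptide's frequency after selection divided by its frequency in the input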
Protocol Notes: SH2 binding enrichment of the phosphorylated peptide, bacterial display (enrichment ratio); higher = better substrate or ligand; peptides without Tyr show the background
Property Name: SH2 binding enrichment
API doc: respond with a numeric literal and nothing else, no unit.

Solved entries:
Ask | Which value of SH2 binding enrichment has been reported for RFLERDIFNRE [HLA-DPB1_Y57_Y57D_YF] in the records?
Reply | 0.565

Ask | Could you share which SH2 binding enrichment value was measured for MGGSVYFSYPD [HIKESHI_Y55] ?
Reply | 0.843

Ask | Given the entry RETLTYAQAQR [BRD1_Y33] , report its measured SH2 binding enrichment.
Reply | 0.753

Ask | Find the recorded SH2 binding enrichment belonging to AALVQYFMEHH [PTPN11_Y80_E76A_YF] and report it.
Reply | 0.946

Let us examine a further case.
Ask | I'd like to know its SH2 binding enrichment. The sequence in question is QKMADYSNKLY [PDPR_Y104]
Reply | 0.447

* * *

Below is a list of entries, each paired with its recorded phosphorylation enrichment value.
System: Fes (UniProt P07332)
Sequence (P07332 whole entry, looked up): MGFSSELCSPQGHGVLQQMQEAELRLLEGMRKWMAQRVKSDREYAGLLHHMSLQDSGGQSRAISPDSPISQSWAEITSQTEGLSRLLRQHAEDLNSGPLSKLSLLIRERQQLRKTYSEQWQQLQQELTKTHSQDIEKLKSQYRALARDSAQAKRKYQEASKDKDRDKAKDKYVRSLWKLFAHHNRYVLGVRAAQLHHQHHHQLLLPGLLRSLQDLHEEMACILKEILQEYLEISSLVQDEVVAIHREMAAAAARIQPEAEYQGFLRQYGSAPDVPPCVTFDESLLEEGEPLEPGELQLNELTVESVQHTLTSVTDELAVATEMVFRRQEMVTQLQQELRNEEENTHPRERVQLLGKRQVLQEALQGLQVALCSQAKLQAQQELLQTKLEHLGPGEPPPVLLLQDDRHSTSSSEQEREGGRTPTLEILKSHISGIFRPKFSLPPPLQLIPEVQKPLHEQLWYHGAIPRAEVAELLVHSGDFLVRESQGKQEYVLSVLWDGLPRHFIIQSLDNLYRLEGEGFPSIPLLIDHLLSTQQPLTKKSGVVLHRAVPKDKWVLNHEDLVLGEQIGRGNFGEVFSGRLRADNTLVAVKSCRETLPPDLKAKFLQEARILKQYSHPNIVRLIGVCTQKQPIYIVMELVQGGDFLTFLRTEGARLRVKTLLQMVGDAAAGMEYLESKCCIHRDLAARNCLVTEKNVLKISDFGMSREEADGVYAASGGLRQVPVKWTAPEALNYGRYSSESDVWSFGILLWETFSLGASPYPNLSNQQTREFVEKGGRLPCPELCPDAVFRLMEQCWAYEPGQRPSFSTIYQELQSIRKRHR
Protocol Notes: phosphorylation enrichment, bacterial display (enrichment ratio); higher = better substrate or ligand; peptides without Tyr show the background
Note: the reply should be a number with no unit written.

Ask | Lab request: please report phosphorylation enrichment under test system Fes (UniProt P07332) for MANFMYKAGPS [MAML2_Y515_YF]
Reply | 0.68

Ask | Notebook: pull reported phosphorylation enrichment for Fes (UniProt P07332), entry LGQRIYQFIRS [DYRK1B_Y271_Q275R_YF]
Reply | 1.19

Ask | Lookup: phosphorylation enrichment / Fes (UniProt P07332) / PQGVRYTFTID [DCX_Y103_I104T_YF]
Reply | 1.66

New cases:
Ask | Please provide the recorded phosphorylation enrichment for ATAKGYEPDAS [OTC_Y223_P220A] , tested on Fes (UniProt P07332).
Reply | 0.784

Ask | Quick check: phosphorylation enrichment on Fes (UniProt P07332), item TLMNAYSSRCH [KIF11_Y231_S235C] ?
Reply | 0.836

Ask | Query for Fes (UniProt P07332): what phosphorylation enrichment does the record show for SIIKDSFHRGA [GATM_Y203_Y203S] ?
Reply | 0.414
